B1: Tryptophan synthase alpha chain, P0A877 (parent)
chain: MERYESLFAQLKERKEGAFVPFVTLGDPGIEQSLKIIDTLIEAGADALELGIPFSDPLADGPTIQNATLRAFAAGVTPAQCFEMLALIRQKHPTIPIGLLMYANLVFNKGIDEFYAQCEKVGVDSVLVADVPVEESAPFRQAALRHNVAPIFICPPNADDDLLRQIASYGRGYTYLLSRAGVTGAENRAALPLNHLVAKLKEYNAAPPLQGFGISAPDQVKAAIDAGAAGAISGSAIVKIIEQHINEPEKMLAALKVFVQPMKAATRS

variants of: B1; details: Escherichia coli (strain K12); pH 5.5; 25 °C; GdnHCl; CD; acetate 0.05 M; reversible: yes; structure 1WQ5; whole UniProt chain shown
Assay endpoint: ddG of mutation (higher = less stable) (kcal/mol)
One number for each entry, in kcal/mol.

Some solved cases for reference:
* E49M | -0.7
* E49Y | 0.4
* E49V | -0.9
* E49S | 1.3

Then there is this variant:
Q: Would you kindly share the measured ddG of mutation (higher = less stable) for E49Q ?
A: 2.4

Values compiled from FireProtDB (doi:10.1016/0022-2836(82)90184-x).
